target: NUAK family SNF1-like kinase 1 (Homo sapiens, UniProt O60285); assay: Inhibition of NUAK1 in HEK293 cells assessed as effect on MYPT1 phosphorylation at Ser445 incubated for 3 mins by immunoblotting analysis; format: cell-based
reported.endpoint: IC50 (µM)
The response must be a number in µM with no trailing unit.

Tell me the measured IC50 of CN1C(=O)c2cc3ccccc3cc2N(C)c2nc(Nc3cnn(C4CCNCC4)c3)ncc21 , please.
10

* * *

target: NUAK family SNF1-like kinase 1 (Homo sapiens, UniProt O60285); assay: Inhibition of NUAK1 (unknown origin)
reported.endpoint: pIC50
The scale used: pIC50 is minus the common logarithm of the concentration in molar units.

Example compounds with recorded pIC50:
compound	pIC50
COc1cccc(OCCCN)c1-c1cc(Nc2cnc(C#N)cn2)n[nH]1	7.19
O=C(NCCCNc1nc(Nc2cccc(NC(=O)N3CCCC3)c2)ncc1I)c1cccs1	8.30
Fc1ccc(Cn2cnc3cc(Cl)c(Nc4cc(C5CC5)[nH]n4)nc32)cc1	7.46

Now look at this one.
Record COCCN1CCN(CCn2ccc(Nc3ncc4c(n3)C(C)Cc3nn(C)c(-c5ccccc5)c3-4)n2)CC1 (stereo not given) : what is its pIC50 with NUAK family SNF1-like kinase 1 (Homo sapiens, UniProt O60285)?
6.39

* * *

Molecular target: UniProtKB O60285
Sequence (O60285 whole entry): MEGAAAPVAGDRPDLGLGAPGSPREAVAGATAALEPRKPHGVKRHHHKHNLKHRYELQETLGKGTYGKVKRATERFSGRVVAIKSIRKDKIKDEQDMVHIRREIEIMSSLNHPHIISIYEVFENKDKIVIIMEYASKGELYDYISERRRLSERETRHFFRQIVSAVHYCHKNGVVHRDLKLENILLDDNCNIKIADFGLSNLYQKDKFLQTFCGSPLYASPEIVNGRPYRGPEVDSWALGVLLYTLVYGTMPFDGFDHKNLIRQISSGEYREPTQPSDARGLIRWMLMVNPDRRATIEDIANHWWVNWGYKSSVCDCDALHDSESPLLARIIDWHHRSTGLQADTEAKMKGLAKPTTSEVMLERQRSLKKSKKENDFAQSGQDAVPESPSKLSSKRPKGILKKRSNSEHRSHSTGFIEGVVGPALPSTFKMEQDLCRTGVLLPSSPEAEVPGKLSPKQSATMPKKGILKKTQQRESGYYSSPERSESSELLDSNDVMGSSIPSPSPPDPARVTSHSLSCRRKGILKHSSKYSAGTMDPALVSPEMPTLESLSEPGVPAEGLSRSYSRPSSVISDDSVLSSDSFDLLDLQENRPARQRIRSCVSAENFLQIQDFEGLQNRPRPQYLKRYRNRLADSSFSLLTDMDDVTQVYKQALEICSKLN
Assay: Inhibition of N-terminal GST-tagged wild type human NUAK1 expressed in Escherichia coli DH5alpha incubated for 30 mins in presence of gamma-[32P]ATP by cerenkov counting analysis
List of pIC50 values.
Notebook: values listed as pIC50 are -log10 of the concentration (mol/L).

Fill in: pIC50 of Cc1ccc2c(c1)C(=O)N(C)c1cnc(Nc3cnn(C4CCNCC4)c3)nc1N2C is ___
8.15

Record request: pIC50 value, item CC(C)(C)NS(=O)(=O)c1cccc(Nc2nc(Nc3cnn(C4CCNCC4)c3)ncc2Cl)c1
7.17

I have this compound here, C=CC(=O)Nc1cccc(Oc2nc(Nc3ccc(N4CCN(C)CC4)cc3OC)ncc2Cl)c1 , and I need its recorded pIC50.
7.60

// query pIC50 value for entry Cc1cc(Nc2ncc3c(n2)N(C)c2ccccc2C(=O)N3C)ccc1C(=O)N1CCN(C)CC1
8.22

Entry CCC(=O)Nc1cccc(Oc2nc(Nc3ccc(N4CCN(C)CC4)cc3OC)ncc2Cl)c1 has what pIC50?
8.82

Name the recorded pIC50 for Cc1ccc2c(c1)C(=O)N(C)c1cnc(Nc3ccc4c(c3)NC(=O)CC4)nc1N2C .
7.82

// query pIC50 value for entry C=CC(=O)Nc1cccc(Oc2nc(Nc3ccc(N4CCN(C)CC4)cc3)nc3[nH]cnc23)c1
7.48

# get_value(readout='pIC50', item= Cc1nc(Nc2cnn(C3CCNCC3)c2)nc2c1N(C)C(=O)c1ccccc1N2C )
7.77
